- Test system: KB
- PROCEDURE_TEXT: Concentration required to inhibit tumor cell growth in KB-8-5 cells
- Assay type: functional, cell-based, Homo sapiens
- MEASUREMENT_CONDITIONS: kb
PARAMETER_MEASURED: pIC50
Give bare numbers, as −log10 of the molar value.

Req: So what does the record say about pIC50 for C/C(=C\[C@H](C(C)C)N(C)C(=O)[C@@H](NC(=O)[C@@H](N)C(C)(C)c1ccccc1)C(C)(C)C)C(=O)O (stereo in doubt; 20) ?
Resp: 6.26

###

- TARGET_SYSTEM: Tubulin beta-1 chain (Homo sapiens)
- Sequence (Q9H4B7 whole entry): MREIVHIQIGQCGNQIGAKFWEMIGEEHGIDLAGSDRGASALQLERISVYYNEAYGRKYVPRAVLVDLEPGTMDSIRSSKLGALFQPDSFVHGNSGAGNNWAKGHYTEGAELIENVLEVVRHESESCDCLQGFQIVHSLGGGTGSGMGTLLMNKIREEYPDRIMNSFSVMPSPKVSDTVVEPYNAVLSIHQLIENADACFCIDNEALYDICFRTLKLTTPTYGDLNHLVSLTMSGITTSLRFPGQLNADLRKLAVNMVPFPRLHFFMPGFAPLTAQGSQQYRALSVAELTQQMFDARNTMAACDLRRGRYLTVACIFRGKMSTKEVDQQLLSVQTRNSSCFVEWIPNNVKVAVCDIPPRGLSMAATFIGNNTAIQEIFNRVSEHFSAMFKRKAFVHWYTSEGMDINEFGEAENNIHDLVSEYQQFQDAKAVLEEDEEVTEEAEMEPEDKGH
- PROCEDURE_TEXT: Percent inhibition of tubulin polymerization at 0.3 uM concentration
- Format: functional
I'd appreciate it if you could supply inhibition values for the items below.
Numbers only, in %.

Previously resolved entries follow.
> print(dat)
                                   molecule                        target.system  recorded.number
1  C/C(=C\[C@H](C(C)C)N(C)C(=O)[C@@H](NC(=O)[C@@H](NCC(=O)O)C(C)(C)c1ccccc1)C(C)(C)C)C(=O)O  Tubulin beta-1 chain (Homo sapiens)               35
2  CN[C@H](C(=O)N(C)[C@H](C(=O)N(C)[C@H](/C=C(\C)C(=O)O)C(C)C)C(C)(C)C)C(C)(C)c1ccccc1  Tubulin beta-1 chain (Homo sapiens)                4
3  CN[C@H](C(=O)N[C@H](C(=O)N(C)[C@H](/C=C(\C)C(=O)O)C(C)C)C(C)(C)SC)C(C)(C)c1ccccc1  Tubulin beta-1 chain (Homo sapiens)               76

Respectfully, I request inhibition for each entry included below.
1. CNC(=O)CN[C@H](C(=O)N[C@H](C(=O)N(C)[C@H](/C=C(\C)C(=O)O)C(C)C)C(C)(C)C)C(C)(C)c1ccccc1
2. CS[C@H](C(=O)N[C@H](C(=O)N(C)[C@H](/C=C(\C)C(=O)O)C(C)C)C(C)(C)C)C(C)(C)c1ccccc1
3. CN[C@H](C(=O)N[C@H](C(=O)N(C)[C@H](/C=C(\C)C(=O)N1CCN(C)CC1)C(C)C)C(C)(C)C)C(C)(C)c1ccccc1

Resp:
[0, 79, 69]

Respectfully, I request inhibition for each entry included below.
1. C/C(=C\[C@H](C(C)C)N(C)C(=O)[C@@H](NC(=O)[C@@H](Cc1ccccc1)C(C)(C)c1ccccc1)C(C)(C)C)C(=O)O
2. CN[C@H](C(=O)N[C@H](C(=O)N(C)[C@H](/C=C(\C)C(=O)O)C(C)C)C(C)C)C(C)(C)c1ccccc1

Resp:
[46, 78]

Respectfully, I request inhibition for each entry included below.
1. C/C(=C\[C@H](C(C)C)N(C)C(=O)[C@@H](NC(=O)[C@@H](NCCO)C(C)(C)c1ccccc1)C(C)(C)C)C(=O)O
2. C/C(=C\[C@H](C(C)C)N(C)C(=O)[C@@H](NC(=O)[C@@H](N(C)CCO)C(C)(C)c1ccccc1)C(C)(C)C)C(=O)O
3. CN[C@H](C(=O)N[C@H](C(=O)N(C)[C@H](/C=C(\C)C(N)=O)C(C)C)C(C)(C)C)C(C)(C)c1ccccc1
4. CN[C@H](C(=O)N[C@H](C(=O)N(C)[C@H](/C=C(\C)C(=O)NO)C(C)C)C(C)(C)C)C(C)(C)c1ccccc1
5. C/C(=C\[C@H](C(C)C)N(C)C(=O)[C@@H](NC(=O)[C@@H](N1CCCC1)C(C)(C)c1ccccc1)C(C)(C)C)C(=O)O

Resp:
1: 90; 2: 72; 3: 72; 4: 75; 5: 83

Respectfully, I request inhibition for each entry included below.
1. C/C(=C\[C@H](C(C)C)N(C)C(=O)[C@@H](NC(=O)[C@H](C(C)(C)c1ccccc1)S(C)(=O)=O)C(C)(C)C)C(=O)O
2. C/C(=C\[C@H](C(C)C)N(C)C(=O)[C@@H](NC(=O)[C@@H](C)C(C)(C)c1ccccc1)C(C)(C)C)C(=O)O
3. CN[C@H](C(=O)N[C@H](C(=O)N(C)[C@H](/C=C(\C)C(=O)O)C(C)C)C(C)(C)C)C(C)(C)O
4. CN[C@H](C(=O)N[C@H](C(=O)N(C)[C@H](/C=C(\C)C(=O)O)Cc1ccccc1)C(C)(C)C)C(C)(C)c1ccccc1
5. CN[C@@H](Cc1ccccc1)C(=O)N[C@H](C(=O)N(C)[C@H](/C=C(\C)C(=O)O)C(C)C)C(C)(C)C
6. CO[C@H](C(=O)N[C@H](C(=O)N(C)[C@H](/C=C(\C)C(=O)O)C(C)C)C(C)(C)C)C(C)(C)c1ccccc1

Resp:
80
94
40
44
66
54
